src = ChEMBL document CHEMBL1127525

- Test system: KB
- assay protocol: Inhibitory concentration of compound was tested against KB tumor growth cell line
- Format: functional, cell-based
- particulars: Homo sapiens

compound: Nc1nc(N)c2c(n1)CCC2CCCc1ccc(C(=O)NC(CCC(=O)O)C(=O)O)cc1 (stereo unspecified)
IC50: 1.7 nM
--
compound: CN(Cc1cnc2nc(N)nc(N)c2n1)c1ccc(C(=O)N[C@@H](CCC(=O)O)C(=O)O)cc1 [METHOTREXATE]
IC50: 19 nM
--
compound: CCC(Cc1cnc2nc(N)nc(N)c2n1)c1ccc(C(=O)N[C@@H](CCC(=O)O)C(=O)O)cc1 (stereo partly specified) [EDATREXATE]
IC50: 3 nM
--
compound: Nc1nc(O)c2c(n1)CCC2CCCc1ccc(C(=O)NC(CCC(=O)O)C(=O)O)cc1 (stereo unspecified)
IC50: > 1000 nM
--
compound: Nc1nc(N)c2c(n1)CCC2CCc1ccc(C(=O)NC(CCC(=O)O)C(=O)O)cc1 (stereo unspecified)
IC50: 4.1 nM
--
compound: Nc1nc2c(c(=O)[nH]1)C(CCc1ccc(C(=O)NC(CCC(=O)O)C(=O)O)cc1)CC2 (stereo unspecified)
IC50: > 1000 nM
